These data points were gathered from ChEMBL document CHEMBL1667818.

assay: Aqueous solubility of the compound at pH 7.4; type: physicochemical
For each entry below, report its solubility value.
One number for each entry, in µg/mL.

# annotated cases, reported solubility shown
{"COMPOUND STRUCTURE STRING": "O=C(NC1CCC1)c1noc(-c2ccc(C(F)(F)F)cc2)c1Cl", "REPORTED": 1}
{"COMPOUND STRUCTURE STRING": "O=C(N[C@@H]1CCC[C@H](O)C1)c1noc(-c2ccc(F)cc2)c1Cl", "REPORTED": 39}
{"COMPOUND STRUCTURE STRING": "O=C(NCCCO)c1noc(-c2ccc(C(F)(F)F)cc2)c1Cl", "REPORTED": 7}
{"COMPOUND STRUCTURE STRING": "O=C(Nc1cccc(O)c1)c1noc(-c2ccc(C(F)(F)F)cc2)c1Cl", "REPORTED": 1}
{"COMPOUND STRUCTURE STRING": "O=C(N[C@@H]1CC[C@H](O)C1)c1noc(-c2ccc(F)cc2)c1Cl", "REPORTED": 19}
{"COMPOUND STRUCTURE STRING": "O=C(c1noc(-c2ccc(C(F)(F)F)cc2)c1Cl)N1CCC(O)CC1", "REPORTED": 5}
{"COMPOUND STRUCTURE STRING": "O=C(N[C@@H]1CC[C@H](O)C1)c1noc(-c2ccc(F)c(F)c2)c1Cl", "REPORTED": 33}
{"COMPOUND STRUCTURE STRING": "O=C(N[C@@H]1CC[C@@H](O)C1)c1noc(-c2ccc(C(F)(F)F)cc2)c1Cl", "REPORTED": 4}

Look at each compound and report its solubility.
1. O=C(N[C@@H]1CCC[C@H](O)C1)c1noc(-c2ccc(F)c(F)c2)c1Cl
2. O=C(N[C@H]1CCC[C@@H](O)C1)c1noc(-c2ccc(C(F)(F)F)cc2)c1Cl

OUT:
1: 17; 2: 3
